Measured values drawn from ChEMBL document CHEMBL1157455 for this set.

test: Cytotoxicity against human HepG2.2.15 cells after 9 days by MTT assay; format: cell-based, HepG2 2.2.15; conditions: read-out: TC50
Property Measured: CC50 at 216 h (µM)
Use µM as the unit, but write only the number.

CC50 at 216 h in this record for `CCOC(=O)c1cc2c(Cn3ccnc3C)c(O)c(OC)cc2nc1CSc1ccc(F)cc1` : 78.5

Record `CCOC(=O)c1cc2c(CN(C)C)c(O)c(OC)cc2nc1CSc1ccccc1OC` . Reported CC50 at 216 h: 58.5

Recorded result, `CCOC(=O)c1cc2c(CN3CCCC3)c(O)c(OC)cc2nc1CSc1ccccn1` , CC50 at 216 h: 17.5

// recorded CC50 at 216 h for CCOC(=O)c1cc2c(Cn3ccnc3)c(O)c(OC)cc2nc1C[S+]([O-])c1cccc(OC)c1 (configuration not stated) : 194

Looking up `CCOC(=O)c1cc2c(CN(C)C)c(O)c(OC)cc2nc1CSc1ccc(F)cc1` , I see its CC50 at 216 h listed as 120

Entry `CCOC(=O)c1cc2c(CN3CCOCC3)c(O)c(OC)cc2nc1CSc1ccc(F)c(F)c1` , CC50 at 216 h reported as 79.7

So, `CCOC(=O)c1cc2c(Cn3ccnc3)c(O)c(OC)cc2nc1CSc1ccc(F)cc1` ? Its CC50 at 216 h was 202
